Tested on: HOP-92 NSCLC
Test: NCI tumour cell line growth inhibition, 48 h
# TGI values compiled below

INSERT INTO results (molecule, experimental_result) VALUES
  ('COc1cc([C@@H]2c3cc4c(cc3[C@H](OC3OC5COC(c6ccccc6)OC5C(O)C3O)[C@H]3COC(=O)[C@H]23)OCO4)cc(OC)c1OC (stereo not given in full)', '18.8 µM'),
  ('COc1c2occc2c(OC)c2c(=O)c(S(=O)(=O)NC(=O)Nc3ccc(Cl)cc3)coc12', '> 10 µM');

Entry `O=C1CCC/C=C\C[C@H]2C=C(Cl)C(=O)/C2=C/C[C@H](CCCCC(F)(F)F)OC(=O)CCC/C=C\C[C@H]2C=C(Cl)C(=O)/C2=C/C[C@H](CCCCC(F)(F)F)O1` , TGI reported as 0.754 µM

Record CCSc1ncnc2c(C3OC(CO)C(O)C3O)nsc12 (stereo not given) , field TGI: > 100 µM

Per the record, `CCOC(=O)C(=[N+]=[N-])C(=O)C[N+]12CCN(CC1)CC2` has TGI of > 100 µM

Consider `CCCCc1ccc2nc(NC(=O)OC)[nH]c2c1` . Its measured TGI is > 63 µM

TGI reported for this molecule `NC(=O)C/C=C/CC(N)=O` : > 100 µM

For record `C(=N\Nc1ncc(-c2cc3cc4c(cc3o2)OCO4)s1)/c1c[nH]c2ccccc12` the listed TGI is 5.34 µM

For COc1ccc([C@H]2c3cc(OC)c(OC)cc3C=C(C=O)C2CO)cc1OC (stereo not given in full) the molecule record lists TGI as > 100 µM

Entry `CN(C)CCCn1c(Cc2ccccc2)nc2cc(C(F)(F)F)ccc21` , TGI reported as 92 µM

`CN(NC(=O)/C(=C/c1ccc(O)cc1)NC(=O)c1ccccc1)c1ccnc2cc(Cl)ccc12` has a reported TGI of 32.2 µM

The molecule listed as `Cc1cc(O)c(C(C)C)cc1NC(=O)Nc1cccc2ccccc12` has a reported TGI of 40.8 µM

So, `CCN1CCC(C(=O)Nc2n[nH]c3nnc(-c4cccc(F)c4F)cc23)CC1` ? Its TGI was > 23.9 µM

Summary for this molecule, `CC(C)Oc1cc(OCC(=O)O)cc(C(=O)N(CCC(N)=O)C(=O)Nc2ccc(C(=O)O)cc2OC(C)C)c1` : TGI is > 100 µM

Short answer for O=S(=O)(c1ccccc1)n1c(C(O)c2ccncc2)cc2ccccc21 (stereo not given) : TGI was > 100 µM

Kindly note the recorded TGI for Cc1c(CNc2ccc(Cl)c(C(=O)NC(CC(=O)O)C(=O)O)c2)ccc2nc(N)nc(N)c12 (stereo not given) , which is > 1000 µM

// recorded TGI for `C[C@]12CC[C@H]3[C@@H](CCC4=CC(=O)C=C[C@@]43O)[C@@H]1CCC2=O` : > 100 µM

Summary for this molecule, `O=C(O)Cc1ccc(Oc2nc3ccccc3nc2-c2cccs2)cc1` : TGI is > 100 µM

COc1ccc(/C=N\N2CC(=O)N3C4C=CC(CC4)N3C2=O)cc1 (stereo not given) has a reported TGI of > 100 µM

Recorded result, `CO/C(=N\N=C\c1ccc(Cl)cc1)c1ccncc1` , TGI: > 100 µM

* * *

System: DU-145 prostate
Test: NCI tumour cell line growth inhibition, 48 h
parameter measured: TGI

Example results:
INSERT INTO results (compound, experimental_result) VALUES
  ('CCNc1nc(N)c(C(=O)c2ccc(Cl)cc2)s1', '> 100 µM'),
  ('COc1cc(Oc2nc3ccccc3nc2C(=O)O)cc(OC)c1OC', '> 100 µM');

Query `CCN1CCC(C(=O)Nc2n[nH]c3nnc(-c4cccc(F)c4F)cc23)CC1` yields TGI of 24.6 µM

Summary for this compound, C=C1C(=O)OC(CCCCCCCC)C1C(=O)O (stereo not given) : TGI is 30.1 µM

Value of measured TGI for the entry `Cc1c(-c2ccccc2)c(C#N)c2nnn(-c3ccccc3)c(=O)n12` : > 100 µM

Sure, the documented TGI for O=S(=O)(c1ccccc1)n1c(C(O)c2ccncc2)cc2ccccc21 (stereo not given) is > 100 µM

Record summary for CCSc1ncnc2c(C3OC(CO)C(O)C3O)nsc12 (stereo not given) : reported TGI = > 100 µM

Value of measured TGI for the entry CN(C(=O)C12C3C4(C(=O)O)C1(C(=O)N(C)C(C)(C)C)C1C2(C(=O)O)C3(C(=O)N(C)C(C)(C)C)C14C(=O)N(C)C(C)(C)C)C(C)(C)C (stereo not given) : > 100 µM

Record `O=c1ccc2nc(-c3ccccc3)nn(-c3ccccc3)c-2c1` . Reported TGI: 3.37 µM

Please fill in: TGI reported for `COc1c2occc2c(OC)c2c(=O)c(S(=O)(=O)NC(=O)Nc3ccc(Cl)cc3)coc12` = > 10 µM

* * *

The following molecules are listed with their measured TGI values.
Tested on: U251 CNS
Assay: NCI tumour cell line growth inhibition, 48 h

INSERT INTO assay_data (molecule, parameter_measured, experimental_result) VALUES
  ('CC1(C)C2CCC1(CS(=O)(=O)Nc1ccccc1)C(=O)C2 (stereo unspecified)', 'TGI', '> 100 µM'),
  ('CC(C)(O)Cn1c(=O)c(Oc2ccc(F)cc2F)cc2cnc(NC3CCOCC3)nc21', 'TGI', '> 25 µM'),
  ('COc1cc(Oc2nc3ccccc3nc2C(=O)O)cc(OC)c1OC', 'TGI', '> 100 µM');

Lab book: TGI of C=C1C(=O)OC2C1C(OC(=O)/C(=C/C)COC(C)=O)CC1(CO1)C1C(OC(=O)/C(=C/C)CO)C=C(C)C21 (stereo unspecified) noted as 35.1 µM

TGI reading for `CN(C)N=Nc1ccc([N+](=O)[O-])cc1C(N)=O` : > 100 µM

Looking up `CC(C)Oc1cc(OCC(=O)O)cc(C(=O)N(CCC(N)=O)C(=O)Nc2ccc(C(=O)O)cc2OC(C)C)c1` , I see its TGI listed as > 100 µM

Consider Nc1ccc2c(c1)C1Oc3ccccc3CC1CO2 (stereo unspecified) . Its measured TGI is > 100 µM

Measured TGI, `CC1(C)CCC[C@]2(C)[C@@H]1CC[C@@]13O[C@@H]1C1=C(CO)C(=O)O[C@]14O[C@@H]4[C@@H]23` : 29.2 µM

* * *

Here the recorded TGI is given for each entry.
Tested on: RPMI-8226 leukemia
Assay: NCI tumour cell line growth inhibition, 48 h
Write the number in µM without appending the unit.

Examples with answers:
INSERT INTO results (compound, value_unit, experimental_result) VALUES
  ('C=C1C(=O)OC2C1C(OC(=O)/C(=C/C)COC(C)=O)CC1(CO1)C1C(OC(=O)/C(=C/C)CO)C=C(C)C21 (configuration not stated)', 'µM', 6.56),
  ('COC(=O)C1=C(C)N2CCCOC2(C)C(C(=O)OC)C1c1cccc(Cl)c1 (configuration not stated)', 'µM', 52.1),
  ('COc1ccc(CN2CCc3c(Cl)nc(N)nc3C2=O)c(OC)c1', 'µM', 52.7),
  ('Cc1ccc(CCC(=O)Nc2ncc(Cc3cc(Cl)ccc3Cl)s2)o1', 'µM', 61.1),
  ('Cc1oc2nc1C(=O)NCc1nc(cs1)C(=O)N[C@H](C(C)C)c1nc(cs1)C(=O)N[C@H]2C', 'µM', 54.4);

The observed TGI for CC1=NN(c2cccc(Cl)c2)C2(C1)C(Cl)C(=O)N2c1nc2ccccc2s1 (configuration not stated) when tested with RPMI-8226 leukemia stands at 41.6

The observed TGI for `COc1cc2c(cc1OCCCC(=O)Nc1cc(C(=O)Nc3cc(C(=O)Nc4cc(C(=O)NCCCN(C)C)n(C)c4)n(C)c3)n(C)c1)N=C[C@@H]1CCCN1C2=O` when tested with RPMI-8226 leukemia stands at 14.6

// assay RPMI-8226 leukemia, entry `COc1cc[c]([Hg][Cl])cc1` , TGI value = 14.7

Reported TGI (RPMI-8226 leukemia) for entry CC(=O)N1N=C(c2c(O)ccc3ccccc23)CC1C(=O)c1ccco1 (configuration not stated) is 57.2

# TGI measured on RPMI-8226 leukemia for item `FC(F)(F)c1ccc2nc(-c3nc(-c4ccccc4)n4ccccc34)[nH]c2c1` = 36.9

* * *

Here the recorded TGI is given for each entry.
Tested on: SK-MEL-2 melanoma
Assay: NCI tumour cell line growth inhibition, 48 h

Below, each entry is followed by its recorded TGI result.
INSERT INTO measurements (compound, target_entity, experimental_result) VALUES
  ('O=S(=O)(c1ccccc1)n1c(C(O)c2ccncc2)cc2ccccc21 (centres undefined)', 'SK-MEL-2 melanoma', '> 100 µM'),
  ('[O-][n+]1onc2c3nn(-c4ccccc4)nc3ccc21', 'SK-MEL-2 melanoma', '> 100 µM'),
  ('CCS[C@H]1NC(=O)C1[C@H](C)O[Si](C)(C)C(C)(C)C (some centres undefined)', 'SK-MEL-2 melanoma', '> 100 µM');

Record `Oc1ccc2c(c1)-c1c(c3cc(O)ccc3n1CCN1CCOCC1)CC2` , field TGI: 37.7 µM
